Target: T1, mouse IL-2Rγ endogenously expressed on MC/9 cells (mouse, UniProt P34902 23-369)
T1 construct: whole, on cells
T1 sequence (looked up): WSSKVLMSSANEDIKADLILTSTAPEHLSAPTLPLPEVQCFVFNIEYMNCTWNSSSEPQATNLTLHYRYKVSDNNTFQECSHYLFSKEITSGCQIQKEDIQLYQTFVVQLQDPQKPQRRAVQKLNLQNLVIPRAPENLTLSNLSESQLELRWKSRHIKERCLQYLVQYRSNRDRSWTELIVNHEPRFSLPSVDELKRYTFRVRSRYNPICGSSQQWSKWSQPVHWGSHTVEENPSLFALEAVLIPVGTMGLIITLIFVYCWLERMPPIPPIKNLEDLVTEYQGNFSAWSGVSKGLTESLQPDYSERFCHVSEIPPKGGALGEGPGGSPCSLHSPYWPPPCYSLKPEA
Test: flow cytometry, 10 ug/ml antibody, MC/9 cells (endogenous mouse IL-2Rg)
quantity: Raw MFI (MFI)
Give the value in MFI but do not write MFI after it.

Worked examples follow.
{"binder": "H4H12890P (antibody, human IgG4 S228P, kappa, V domains shown, fully human anti-IL2Rg antibody, human IgG4) VH: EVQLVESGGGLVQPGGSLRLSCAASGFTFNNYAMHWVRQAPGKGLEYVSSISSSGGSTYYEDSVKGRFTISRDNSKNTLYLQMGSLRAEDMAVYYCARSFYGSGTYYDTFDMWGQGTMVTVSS VL: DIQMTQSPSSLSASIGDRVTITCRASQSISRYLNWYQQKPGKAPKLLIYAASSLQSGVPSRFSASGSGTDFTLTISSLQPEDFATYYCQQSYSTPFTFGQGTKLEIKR", "quantity": "Raw MFI", "measurement": 170}
{"binder": "H4H12858P (antibody, human IgG4 S228P, kappa, V domains shown, fully human anti-IL2Rg antibody, human IgG4; also called REGN9433) VH: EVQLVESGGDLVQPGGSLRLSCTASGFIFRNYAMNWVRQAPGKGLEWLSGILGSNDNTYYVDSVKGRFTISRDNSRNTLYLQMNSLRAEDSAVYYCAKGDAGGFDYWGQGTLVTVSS VL: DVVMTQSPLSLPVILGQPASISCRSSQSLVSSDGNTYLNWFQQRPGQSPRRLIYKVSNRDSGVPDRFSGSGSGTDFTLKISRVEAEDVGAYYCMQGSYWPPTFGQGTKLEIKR", "quantity": "Raw MFI", "measurement": 199}

Shift focus to the following entry.
Qu. What does the record list as Raw MFI for H4H12857P (antibody, human IgG4 S228P, kappa, V domains shown, fully human anti-IL2Rg antibody, human IgG4; also called REGN9432) VH: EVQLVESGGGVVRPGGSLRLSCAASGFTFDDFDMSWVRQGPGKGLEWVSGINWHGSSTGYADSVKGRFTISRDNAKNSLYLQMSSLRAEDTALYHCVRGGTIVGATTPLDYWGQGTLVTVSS VL: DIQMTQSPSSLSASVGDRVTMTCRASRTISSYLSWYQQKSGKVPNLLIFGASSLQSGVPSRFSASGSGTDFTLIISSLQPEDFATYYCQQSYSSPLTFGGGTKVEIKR ?
Ans. 198
